Value source: PubChem BioAssay (NCATS)

Tested on: Dd2
test.description: qHTS profiling for inhibitors of Plasmodium falciparum proliferation (AID 504749); further: nearly all actives have a fitted effect of over 60% in size; further: potency means the concentration at half of the fitted maximal effect
condition.summary: P. falciparum in erythrocytes, SYBR Green DNA, 72 h; series mostly up to 28.7 µM
Results filed as inconclusive are left out. Calls of active or inactive are those of the source. The call rests on the fitted dose curve; in most records, active means well fitted inhibition curve with a large enough effect; inconclusive means small, poorly fitted or top-dose-only effect; inactive means flat fitted curve, though single readings scatter.
reported.endpoint: Potency

molecule	test.result
CC[N+](CC)(CC)CCOc1cccc(OCC[N+](CC)(CC)CC)c1OCC[N+](CC)(CC)CC	inactive
Cc1cc(C(C)(C)C)cc(C)c1CC1=NCCN1	inactive
Cc1ccc(-c2cc(C(F)(F)F)nn2-c2ccc(S(N)(=O)=O)cc2)cc1	inactive
CCCCc1oc2ccccc2c1C(=O)c1cc(I)c(OCCN(CC)CC)c(I)c1	11.2 µM (active)
CN1CCC(=C2c3ccccc3CC(=O)c3sccc32)CC1	4.47 µM (active)
Cc1cn([C@H]2C=C[C@@H](CO)O2)c(=O)[nH]c1=O	inactive
CC(C)(C)C(=O)Oc1ccc(S(=O)(=O)Nc2ccccc2C(=O)NCC(=O)O)cc1	inactive
CCC1(c2ccccc2)C(=O)NCNC1=O	inactive
Cc1cnc(C(=O)NCCc2ccc(S(=O)(=O)NC(=O)NC3CCCCC3)cc2)cn1	inactive
Nc1nnc(-c2cccc(Cl)c2Cl)c(N)n1	inactive
N[C@@H](Cc1c[nH]c2ccc(O)cc12)C(=O)O	inactive
Cn1cnc2c1c(=O)[nH]c(=O)n2C	inactive

----------
test.description: qHTS of pediatric cancer cell lines to identify multiple opportunities for drug repurposing: Confirmatory screen for DAOY cells (AID 1347114); further: nearly all actives have a fitted effect of over 65% in size
condition.summary: DAOY medulloblastoma cells viability, cytotoxicity qHTS; series mostly up to 45.9 µM
Records with an inconclusive call do not appear. Activity calls are given as the source filed them. The call rests on the fitted dose curve; in most records, active means well fitted cell-killing curve with a large enough effect; inconclusive means small, poorly fitted or top-dose-only effect; inactive means no such curve, though single readings can be large or run the other way.
Possible outcomes: active, inactive

molecule	category.label
O=C(Nc1ccc([N+](=O)[O-])cc1Cl)c1cc(Cl)ccc1O	active
CCCCc1oc2ccccc2c1C(=O)c1cc(I)c(OCCN(CC)CC)c(I)c1	active
CN1CCN(CCCN2c3ccccc3Sc3ccc(Cl)cc32)CC1	active
NC12CC3CC(CC(C3)C1)C2	inactive
COC(=O)Nc1nc2ccc(C(=O)c3cccs3)cc2[nH]1	active
O=C(c1ccc(OCCN2CCCCC2)cc1)c1c(-c2ccc(O)cc2)sc2cc(O)ccc12	active
Clc1ccc2nsnc2c1NC1=NCCN1	inactive
O=C1c2c(O)ccc(O)c2C(=O)c2c(NCCNCCO)ccc(NCCNCCO)c21	active
CC[C@@]1(O)C(=O)OCc2c1cc1n(c2=O)Cc2cc3c(CN(C)C)c(O)ccc3nc2-1	active
CCC1(c2ccccc2)C(=O)NCNC1=O	inactive
CC(C)Cc1ccc(C(C)C(=O)O)cc1 (stereo unspecified)	active

----------
test.description: qHTS of pediatric cancer cell lines to identify multiple opportunities for drug repurposing: Primary screen for SJ-GBM2 cells (AID 1347091)
condition.summary: SJ-GBM2 viability, CellTiter-Glo luminescence, 48 h; series mostly up to 46 µM
Records with an inconclusive call do not appear. Calls of active or inactive are those of the source. Calls come from the whole dose curve; as a rule, active = well fitted cell-killing curve with a large enough effect; inconclusive = small, poorly fitted or top-dose-only effect; inactive = no such curve, though single readings can be large or run the other way.
Possible outcomes: active, inactive

molecule	category.label
CN(CCOc1ccc(NS(C)(=O)=O)cc1)CCc1ccc(NS(C)(=O)=O)cc1	inactive
NCCc1cnc[nH]1	inactive
Cn1ccc2cc3c(cc21)CCN3C(=O)Nc1cccnc1	inactive
O=c1c(O)c(-c2ccc(O)c(O)c2)oc2cc(O)cc(O)c12	inactive
CS(=O)(=O)CCNCc1ccc(-c2ccc3ncnc(Nc4ccc(OCc5cccc(F)c5)c(Cl)c4)c3c2)o1	active
OCCN(CCO)c1nc(N2CCCCC2)c2nc(N(CCO)CCO)nc(N3CCCCC3)c2n1	inactive
Nc1c2c(nc3ccccc13)CCCC2	inactive
CCC1(c2ccccc2)C(=O)NCNC1=O	inactive
O=C(C1CCCCC1)N1CC(=O)N2CCc3ccccc3C2C1 (stereo unspecified)	inactive
CCOC(=O)c1ncn2c1CN(C)C(=O)c1cc(F)ccc1-2	inactive
Cc1cnc(C(=O)NCCc2ccc(S(=O)(=O)NC(=O)NC3CCCCC3)cc2)cn1	inactive
CC1(CN2CCC(n3c(=O)[nH]c4ccccc43)CC2)OCc2ccccc2-n2cccc21 (stereo unspecified)	inactive
CCCNCC(O)COc1ccccc1C(=O)CCc1ccccc1 (stereo unspecified)	inactive
Cc1ccc(C(=O)Nc2ccc(S(=O)(=O)O)c3cc(S(=O)(=O)O)cc(S(=O)(=O)O)c23)cc1NC(=O)c1cccc(NC(=O)Nc2cccc(C(=O)Nc3cc(C(=O)Nc4ccc(S(=O)(=O)O)c5cc(S(=O)(=O)O)cc(S(=O)(=O)O)c45)ccc3C)c2)c1	inactive
Nc1ccn([C@H]2CC[C@@H](CO)O2)c(=O)n1	inactive
Clc1ccc2nsnc2c1NC1=NCCN1	inactive
CC#C[C@]1(O)CC[C@H]2[C@@H]3CCC4=CC(=O)CCC4=C3[C@@H](c3ccc(N(C)C)cc3)C[C@@]21C	active
CCOC(=O)Nc1ccc(NCc2ccc(F)cc2)nc1N	inactive
Nc1nnc(-c2cccc(Cl)c2Cl)c(N)n1	inactive
CN1CCC(=C2c3ccccc3CC(=O)c3sccc32)CC1	inactive
COc1cc2nc(N3CCN(C(=O)c4ccco4)CC3)nc(N)c2cc1OC	inactive
